Would you kindly list t1/2 for each of these binders?
target: T1, human C5 R885H-mmh (human, UniProt P01031 19-1676); experiment: SPR, mAb captured via anti-hFc, 25C
T1 construct: also called human C5 variant R885H
Numbers only, in h.

Would you please look over these solved cases?
Binder	t1/2, h
H4H11683N (antibody, V domains shown, also called H2M11683N) VH: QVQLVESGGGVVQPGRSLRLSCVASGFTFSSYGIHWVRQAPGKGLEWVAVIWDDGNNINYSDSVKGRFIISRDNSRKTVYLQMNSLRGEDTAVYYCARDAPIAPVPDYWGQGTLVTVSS VL: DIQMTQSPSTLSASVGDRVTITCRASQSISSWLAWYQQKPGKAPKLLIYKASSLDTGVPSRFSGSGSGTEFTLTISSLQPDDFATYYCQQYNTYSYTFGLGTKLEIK	0.783
H4H11686N (antibody, V domains shown, also called H2M11686N) VH: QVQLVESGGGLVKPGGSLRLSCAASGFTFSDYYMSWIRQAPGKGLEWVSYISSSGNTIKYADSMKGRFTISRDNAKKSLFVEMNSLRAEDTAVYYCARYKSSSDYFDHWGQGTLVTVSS VL: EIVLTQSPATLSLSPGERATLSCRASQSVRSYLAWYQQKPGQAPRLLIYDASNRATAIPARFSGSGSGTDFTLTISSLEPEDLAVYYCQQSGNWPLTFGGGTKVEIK	1.82

Quick request: t1/2 for each listed item, please.
1. H4H12161P (antibody, human IgG4, V domains shown, Human IgG4 Fc with S108P hinge mutation (H4H)) VH: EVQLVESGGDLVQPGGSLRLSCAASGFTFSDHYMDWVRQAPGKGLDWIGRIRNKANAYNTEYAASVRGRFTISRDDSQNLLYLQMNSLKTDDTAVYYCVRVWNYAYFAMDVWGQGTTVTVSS VL: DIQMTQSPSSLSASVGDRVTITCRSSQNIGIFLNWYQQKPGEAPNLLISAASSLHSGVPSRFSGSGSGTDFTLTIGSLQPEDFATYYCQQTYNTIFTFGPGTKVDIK
2. H4H12169P (antibody, human IgG4, V domains shown, Human IgG4 Fc with S108P hinge mutation (H4H)) VH: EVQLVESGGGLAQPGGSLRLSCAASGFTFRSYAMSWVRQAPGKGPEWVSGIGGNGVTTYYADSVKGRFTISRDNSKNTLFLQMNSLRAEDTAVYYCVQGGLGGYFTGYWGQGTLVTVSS VL: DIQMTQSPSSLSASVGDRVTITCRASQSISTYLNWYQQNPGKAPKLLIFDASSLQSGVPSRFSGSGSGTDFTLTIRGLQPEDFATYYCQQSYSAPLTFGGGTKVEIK

Result:
2.32
2.72

// each listed binder needs a value for t1/2
1. H4H12171P (antibody, human IgG4, V domains shown, Human IgG4 Fc with S108P hinge mutation (H4H)) VH: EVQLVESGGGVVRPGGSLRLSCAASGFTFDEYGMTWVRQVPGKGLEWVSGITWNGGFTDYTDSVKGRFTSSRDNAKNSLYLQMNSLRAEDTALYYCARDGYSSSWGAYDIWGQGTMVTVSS VL: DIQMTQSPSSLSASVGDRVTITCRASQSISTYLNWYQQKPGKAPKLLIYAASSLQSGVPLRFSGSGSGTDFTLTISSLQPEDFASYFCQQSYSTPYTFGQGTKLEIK
2. H4H12164P (antibody, human IgG4, V domains shown, Human IgG4 Fc with S108P hinge mutation (H4H)) VH: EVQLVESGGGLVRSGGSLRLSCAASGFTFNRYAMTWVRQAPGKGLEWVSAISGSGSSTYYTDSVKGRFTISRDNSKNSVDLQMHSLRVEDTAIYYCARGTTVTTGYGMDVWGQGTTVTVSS VL: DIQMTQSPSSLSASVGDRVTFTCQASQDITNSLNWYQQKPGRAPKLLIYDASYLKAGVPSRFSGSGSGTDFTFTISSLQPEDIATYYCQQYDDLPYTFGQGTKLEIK

Result:
1: 1.35; 2: 1.03

// each binder listed below needs its t1/2
1. H4H12167P (antibody, human IgG4, V domains shown, Human IgG4 Fc with S108P hinge mutation (H4H)) VH: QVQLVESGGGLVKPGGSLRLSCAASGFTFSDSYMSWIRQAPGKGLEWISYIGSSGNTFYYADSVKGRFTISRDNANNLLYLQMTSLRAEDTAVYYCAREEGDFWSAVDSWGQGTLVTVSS VL: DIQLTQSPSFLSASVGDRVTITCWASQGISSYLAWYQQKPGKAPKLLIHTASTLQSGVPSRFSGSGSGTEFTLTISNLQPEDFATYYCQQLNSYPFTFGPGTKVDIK
2. H4H12175P (antibody, human IgG4, V domains shown, Human IgG4 Fc with S108P hinge mutation (H4H)) VH: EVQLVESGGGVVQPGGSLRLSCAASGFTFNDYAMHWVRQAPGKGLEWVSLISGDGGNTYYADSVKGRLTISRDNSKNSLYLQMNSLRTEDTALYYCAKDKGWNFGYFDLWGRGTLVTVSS VL: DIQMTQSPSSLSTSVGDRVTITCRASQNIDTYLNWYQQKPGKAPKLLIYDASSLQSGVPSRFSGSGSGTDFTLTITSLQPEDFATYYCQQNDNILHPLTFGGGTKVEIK
3. H4H12159P (antibody, human IgG4, V domains shown, Human IgG4 Fc with S108P hinge mutation (H4H)) VH: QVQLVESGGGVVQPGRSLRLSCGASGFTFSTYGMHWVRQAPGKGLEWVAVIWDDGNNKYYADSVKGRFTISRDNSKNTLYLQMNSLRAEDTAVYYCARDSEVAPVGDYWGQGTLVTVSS VL: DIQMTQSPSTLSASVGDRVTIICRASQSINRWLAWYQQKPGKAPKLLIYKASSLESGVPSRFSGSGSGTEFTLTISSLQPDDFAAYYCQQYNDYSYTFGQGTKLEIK
4. H4H12163P (antibody, human IgG4, V domains shown, Human IgG4 Fc with S108P hinge mutation (H4H)) VH: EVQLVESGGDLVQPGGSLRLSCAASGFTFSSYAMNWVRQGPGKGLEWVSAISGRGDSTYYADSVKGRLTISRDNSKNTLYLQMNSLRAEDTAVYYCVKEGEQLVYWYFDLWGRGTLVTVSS VL: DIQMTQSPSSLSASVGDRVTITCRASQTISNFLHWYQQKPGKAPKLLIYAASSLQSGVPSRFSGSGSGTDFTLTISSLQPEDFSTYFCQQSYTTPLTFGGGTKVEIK

Result:
0.65
0.1
1.1
0.45

Ask: Looking for the measured t1/2 of H4H12168P (antibody, human IgG4, V domains shown, Human IgG4 Fc with S108P hinge mutation (H4H)) VH: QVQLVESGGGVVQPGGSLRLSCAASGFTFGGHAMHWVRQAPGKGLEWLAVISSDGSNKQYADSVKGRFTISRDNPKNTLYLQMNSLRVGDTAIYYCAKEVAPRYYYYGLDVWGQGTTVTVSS VL: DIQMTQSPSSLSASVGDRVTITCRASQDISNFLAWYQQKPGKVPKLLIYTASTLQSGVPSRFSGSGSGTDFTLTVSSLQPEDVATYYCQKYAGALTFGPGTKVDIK , can you help?
Result: 0.9

The measurements presented in this section are drawn from patent US20170355757A1.
